Below: a set of entries, each annotated with reported Activity.
# System: Oryza sativa
# test summary: Effect on Oryza sativa (rice) assessed as growth rate at 0.1 uM relative to control
# Type: organism-based
# run parameters: in vivo
Respond numerically; units are % and should not be typed.

C[C@@H](NC(=O)Nc1ccccc1Br)c1ccccc1	99

Ask: Which value of Activity has been reported for "C[C@@H](NC(=O)Nc1ccccc1)c1ccccc1" in the records?
Result: 101

Ask: Which value of Activity has been reported for "C[C@H](NC(=O)Nc1cc(C(F)(F)F)cc(C(F)(F)F)c1)c1ccccc1" in the records?
Result: 101

Ask: Which value of Activity has been reported for "C[C@H](NC(=O)Nc1ccccc1C(F)(F)F)c1ccccc1" in the records?
Result: 97

###

# Tested on: Oryza sativa
# test summary: Effect on Oryza sativa (rice) assessed as growth rate at 10 uM relative to control
# Assay type: organism-based
# run parameters: in vivo
Criterion: Activity meeting or surpassing 90%. Met: Criterion met. Not met: Criterion not met.

Look over these answered cases.
C[C@H](NC(=O)Nc1cc(F)cc(F)c1)c1ccccc1	Criterion met
CC(C)c1ccccc1NC(=O)N[C@H](C)c1ccccc1	Criterion not met
CC(=O)c1ccccc1NC(=O)N[C@@H](C)c1ccccc1	Criterion met

Ask: Is the recorded value of Activity equal to or greater than 90% for this molecule? "COc1ccc(NC(=O)N[C@@H](C)c2ccccc2)cc1"
Result: Criterion met

Ask: Is the recorded value of Activity equal to or greater than 90% for this molecule? "Cc1ccc(NC(=O)N[C@H](C)c2ccccc2)cc1"
Result: Criterion not met

Ask: Is the recorded value of Activity equal to or greater than 90% for this molecule? "Cc1cc(F)ccc1NC(=O)N[C@@H](C)c1ccccc1"
Result: Criterion met

Ask: Is the recorded value of Activity equal to or greater than 90% for this molecule? "C[C@@H](NC(=O)Nc1ccc(F)c(F)c1)c1ccccc1"
Result: Criterion met

Ask: Is the recorded value of Activity equal to or greater than 90% for this molecule? "C[C@H](NC(=O)Nc1cc(C(F)(F)F)ccc1F)c1ccccc1"
Result: Criterion not met

Ask: Is the recorded value of Activity equal to or greater than 90% for this molecule? "C[C@H](NC(=O)Nc1ccc(C(F)(F)F)cc1)c1ccccc1"
Result: Criterion met

Ask: Is the recorded value of Activity equal to or greater than 90% for this molecule? "C[C@@H](NC(=O)Nc1ccccc1F)c1ccccc1"
Result: Criterion not met

Ask: Is the recorded value of Activity equal to or greater than 90% for this molecule? "C[C@H](NC(=O)Nc1ccccc1C(C)(C)C)c1ccccc1"
Result: Criterion met

Ask: Is the recorded value of Activity equal to or greater than 90% for this molecule? "C[C@@H](NC(=O)Nc1ccccc1Br)c1ccccc1"
Result: Criterion met

Ask: Is the recorded value of Activity equal to or greater than 90% for this molecule? "CCCCc1ccc(NC(=O)N[C@H](C)c2ccccc2)cc1"
Result: Criterion not met

Ask: Is the recorded value of Activity equal to or greater than 90% for this molecule? "CC(C)c1cccc(NC(=O)N[C@@H](C)c2ccccc2)c1"
Result: Criterion not met

Ask: Is the recorded value of Activity equal to or greater than 90% for this molecule? "COc1ccccc1NC(=O)N[C@@H](C)c1ccccc1"
Result: Criterion met

Ask: Is the recorded value of Activity equal to or greater than 90% for this molecule? "C[C@H](NC(=O)Nc1ccc(C(C)(C)C)cc1)c1ccccc1"
Result: Criterion not met

Ask: Is the recorded value of Activity equal to or greater than 90% for this molecule? "Cc1ccc(NC(=O)N[C@@H](C)c2ccccc2)cc1"
Result: Criterion met

Ask: Is the recorded value of Activity equal to or greater than 90% for this molecule? "C[C@@H](NC(=O)Nc1ccccc1)c1ccccc1"
Result: Criterion not met

Ask: Is the recorded value of Activity equal to or greater than 90% for this molecule? "C[C@H](NC(=O)Nc1cc(F)ccc1F)c1ccccc1"
Result: Criterion met

Ask: Is the recorded value of Activity equal to or greater than 90% for this molecule? "CC(=O)c1cccc(NC(=O)N[C@@H](C)c2ccccc2)c1"
Result: Criterion met

Ask: Is the recorded value of Activity equal to or greater than 90% for this molecule? "C[C@H](NC(=O)Nc1cc(Cl)ccc1Cl)c1ccccc1"
Result: Criterion met

Ask: Is the recorded value of Activity equal to or greater than 90% for this molecule? "COc1ccc(NC(=O)N[C@H](C)c2ccccc2)cc1"
Result: Criterion met

Ask: Is the recorded value of Activity equal to or greater than 90% for this molecule? "C[C@@H](NC(=O)Nc1ccc(F)cc1F)c1ccccc1"
Result: Criterion met

Ask: Is the recorded value of Activity equal to or greater than 90% for this molecule? "COc1cccc(NC(=O)N[C@@H](C)c2ccccc2)c1"
Result: Criterion met

Ask: Is the recorded value of Activity equal to or greater than 90% for this molecule? "CCc1cccc(CC)c1NC(=O)N[C@@H](C)c1ccccc1"
Result: Criterion not met

Ask: Is the recorded value of Activity equal to or greater than 90% for this molecule? "C[C@@H](NC(=O)Nc1ccccc1C(F)(F)F)c1ccccc1"
Result: Criterion not met

Ask: Is the recorded value of Activity equal to or greater than 90% for this molecule? "C[C@@H](NC(=O)Nc1cc(Cl)cc(Cl)c1)c1ccccc1"
Result: Criterion met
